Below, each entry is listed alongside its reported half-life at 50 µM.
Test: Half life of the compound in trifluoroacetate buffer at 50 uM at pH 1.2 by HPLC analysis
Type: physicochemical
Return type: number; implicit unit h.

query.smiles: O=c1[nH]cnc2c1nc(-c1ccncc1)n2[C@@H]1O[C@H](CO)[C@@H](O)[C@H]1O
endpoint: half-life at 50 µM
result.value: 10

Using the record for O=c1[nH]cnc2c1nc(-c1cccnc1)n2[C@@H]1O[C@H](CO)[C@@H](O)[C@H]1O , state its measured half-life at 50 µM.
15

Using the record for O=c1[nH]cnc2c1nc(-c1ccc(C(F)(F)F)cc1)n2[C@@H]1O[C@H](CO)[C@@H](O)[C@H]1O , state its measured half-life at 50 µM.
5

Using the record for COc1ccc(-c2nc3c(=O)[nH]cnc3n2[C@@H]2O[C@H](CO)[C@@H](O)[C@H]2O)cc1 , state its measured half-life at 50 µM.
5

----------
Tested on: MDCK
Test: Cytotoxicity against MDCK cells up to 100 uM
Format: cell-based, Canis lupus familiaris
Details: dog
endpoint: Activity

query.smiles: O=c1[nH]cnc2c1nc(-c1ccc(C(F)(F)F)cc1)n2[C@@H]1O[C@H](CO)[C@@H](O)[C@H]1O
Activity: Non-toxic
//
query.smiles: O=c1[nH]cnc2c1nc(-c1cccc(C(F)(F)F)c1)n2[C@@H]1O[C@H](CO)[C@@H](O)[C@H]1O
Activity: Non-toxic
//
query.smiles: O=c1[nH]cnc2c1nc(-c1cccnc1)n2[C@@H]1O[C@H](CO)[C@@H](O)[C@H]1O
Activity: Non-toxic
//
query.smiles: O=c1[nH]cnc2c1nc(-c1ccncc1)n2[C@@H]1O[C@H](CO)[C@@H](O)[C@H]1O
Activity: Non-toxic
//
query.smiles: COc1cccc(-c2nc3c(=O)[nH]cnc3n2[C@@H]2O[C@H](CO)[C@@H](O)[C@H]2O)c1
Activity: Non-toxic

As a next step, examine the compound that follows.
Using the record for COc1ccc(-c2nc3c(=O)[nH]cnc3n2[C@@H]2O[C@H](CO)[C@@H](O)[C@H]2O)cc1 , state its measured Activity.
Non-toxic

----------
Experiment: Hydrolytic stability of the compound in citrate buffer at 50 uM at pH 5 up to 24 hrs by HPLC analysis
Format: physicochemical
Settings: pH 5, 24 h

query.smiles: COc1cccc(-c2nc3c(=O)[nH]cnc3n2[C@@H]2O[C@H](CO)[C@@H](O)[C@H]2O)c1
Stability: Stable
//
query.smiles: O=c1[nH]cnc2c1nc(-c1ccncc1)n2[C@@H]1O[C@H](CO)[C@@H](O)[C@H]1O
Stability: Stable
//
query.smiles: O=c1[nH]cnc2c1nc(-c1ccc(C(F)(F)F)cc1)n2[C@@H]1O[C@H](CO)[C@@H](O)[C@H]1O
Stability: Stable

----------
Experiment: Hydrolytic stability of the compound in phosphate buffer at 50 uM at pH 7.4 up to 24 hrs by HPLC analysis
Format: physicochemical
Conditions: pH 7.4, 24 h
endpoint: Stability

Example results:
query.smiles: COc1ccc(-c2nc3c(=O)[nH]cnc3n2[C@@H]2O[C@H](CO)[C@@H](O)[C@H]2O)cc1
result.value: Stable
//
query.smiles: COc1cccc(-c2nc3c(=O)[nH]cnc3n2[C@@H]2O[C@H](CO)[C@@H](O)[C@H]2O)c1
result.value: Stable
//
query.smiles: Cc1ccc(-c2nc3c(=O)[nH]cnc3n2[C@@H]2O[C@H](CO)[C@@H](O)[C@H]2O)cc1
result.value: Stable
//
query.smiles: O=c1[nH]cnc2c1nc(-c1ccc(C(F)(F)F)cc1)n2[C@@H]1O[C@H](CO)[C@@H](O)[C@H]1O
result.value: Stable
//
query.smiles: O=c1[nH]cnc2c1nc(-c1ccncc1)n2[C@@H]1O[C@H](CO)[C@@H](O)[C@H]1O
result.value: Stable

Using the record for O=c1[nH]cnc2c1nc(-c1cccnc1)n2[C@@H]1O[C@H](CO)[C@@H](O)[C@H]1O , state its measured Stability.
Stable

Using the record for O=c1[nH]cnc2c1nc(-c1cccc(C(F)(F)F)c1)n2[C@@H]1O[C@H](CO)[C@@H](O)[C@H]1O , state its measured Stability.
Stable

----------
System: Respiratory syncytial virus
Test: Antiviral activity against Respiratory syncytial virus Long assessed as inhibition of virus-induced cytopathicity at 100 uM by cell-based assay
Format: functional, organism-based
The source made the active and inactive calls. The rule behind the calls is not given here.
endpoint: Activity

Example results:
query.smiles: O=c1[nH]cnc2c1nc(-c1cccc(C(F)(F)F)c1)n2[C@@H]1O[C@H](CO)[C@@H](O)[C@H]1O
Activity: inactive
//
query.smiles: O=c1[nH]cnc2c1nc(-c1ccncc1)n2[C@@H]1O[C@H](CO)[C@@H](O)[C@H]1O
Activity: inactive
//
query.smiles: COc1cccc(-c2nc3c(=O)[nH]cnc3n2[C@@H]2O[C@H](CO)[C@@H](O)[C@H]2O)c1
Activity: inactive
//
query.smiles: Cc1ccc(-c2nc3c(=O)[nH]cnc3n2[C@@H]2O[C@H](CO)[C@@H](O)[C@H]2O)cc1
Activity: inactive
//
query.smiles: COc1ccc(-c2nc3c(=O)[nH]cnc3n2[C@@H]2O[C@H](CO)[C@@H](O)[C@H]2O)cc1
Activity: inactive
//
query.smiles: O=c1[nH]cnc2c1nc(-c1ccc(C(F)(F)F)cc1)n2[C@@H]1O[C@H](CO)[C@@H](O)[C@H]1O
Activity: inactive

Using the record for O=c1[nH]cnc2c1nc(-c1cccnc1)n2[C@@H]1O[C@H](CO)[C@@H](O)[C@H]1O , state its measured Activity.
inactive

----------
Tested on: Vesicular stomatitis virus
Assay: Antiviral activity against Vesicular stomatitis virus assessed as inhibition of virus-induced cytopathicity at 100 uM by cell-based assay
Format: functional, organism-based
The source made the active and inactive calls. No cut-off for these calls is given here.

query.smiles: O=c1[nH]cnc2c1nc(-c1cccnc1)n2[C@@H]1O[C@H](CO)[C@@H](O)[C@H]1O
study.target: Vesicular stomatitis virus
Activity: inactive
//
query.smiles: O=c1[nH]cnc2c1nc(-c1ccncc1)n2[C@@H]1O[C@H](CO)[C@@H](O)[C@H]1O
study.target: Vesicular stomatitis virus
Activity: inactive
//
query.smiles: O=c1[nH]cnc2c1nc(-c1cccc(C(F)(F)F)c1)n2[C@@H]1O[C@H](CO)[C@@H](O)[C@H]1O
study.target: Vesicular stomatitis virus
Activity: inactive
